Tested on: U-251
Test: Induction of apoptosis in human U251 cells assessed as viable cells at 100 uM after 48 hrs using annexin-V FITC and PI staining by flow cytometry in presence of Z-Asp-2,6-dichlorobenzoyloxymethylketone
Format: functional
Conditions: U-251, 48 h, read-out: Activity
Reported property: viability at 100 µM (%)
One number for each entry, in %.

Observe how each entry below is paired with its result.
{"Compound": "CCCC(=O)OCOC(=O)CCC(=O)CN.Cl", "Units text": "%", "viability at 100 µM": 80}
{"Compound": "NCC(=O)CCC(=O)O", "Units text": "%", "viability at 100 µM": 76}
{"Compound": "CC(C)(C)C(=O)OCOC(=O)CCC(=O)CN.Cl", "Units text": "%", "viability at 100 µM": 82}

Alright, here's another compound for you.
q: Give the reported viability at 100 µM for CCCC(=O)OC(C)OC(=O)CCC(=O)CN.Cl (centres undefined) (system: U-251).
a: 88

---

Would you kindly list Activity for each of these compounds?
System: U-251
Assay: Induction of necrosis in human U251 cells assessed as necrotic cells at 100 uM after 48 hrs using annexin-V FITC and PI staining by flow cytometry
Format: functional
Answers are plain numbers, in %.

{"Compound": "CCCC(=O)OCOC(=O)CCC(=O)CN.Cl", "Test result": 19}

Batch of 3 compounds: report Activity for each.
1. CC(C)(C)C(=O)OCOC(=O)CCC(=O)CN.Cl
2. NCC(=O)CCC(=O)O
3. CCCC(=O)OC(C)OC(=O)CCC(=O)CN.Cl (centres undefined)

a:
[9, 7, 10]

---

Test system: U-251
Experiment: Induction of necrosis in human U251 cells assessed as necrotic cells at 100 uM after 48 hrs using annexin-V FITC and PI staining by flow cytometry in presence of Z-Asp-2,6-dichlorobenzoyloxymethylketone
Assay type: functional
Reported property: Activity (%)
Numbers only, in %.

{"Compound": "NCC(=O)CCC(=O)O", "Activity [%]": 17}
{"Compound": "CCCC(=O)OC(C)OC(=O)CCC(=O)CN.Cl (centres undefined)", "Activity [%]": 7}
{"Compound": "CC(C)(C)C(=O)OCOC(=O)CCC(=O)CN.Cl", "Activity [%]": 11}

Query compound follows.
q: Entry under review: CCCC(=O)OCOC(=O)CCC(=O)CN.Cl . Reported Activity?
a: 11

---

System: U-251
Test: Cytotoxicity against human U251 cells after 72 hrs by Hoechst test
Format: functional, cell-based
Details: U-251, 72 h
Reported property: IC50
Reply with the number and its unit after it.

For the 6 compounds below, give their IC50 values.
1. CC(C)(C)C(=O)OCOC(=O)CCC(=O)CN.Cl
2. CCCC(=O)OCOP(=O)(OCC)OCC [(DIETHOXYPHOSPHORYLOXY)METHYL BUTYRATE]
3. CCCC(=O)O
4. NCC(=O)CCC(=O)O
5. CC(OC(=O)CCC(=O)CN)OC(=O)C(C)(C)C (centres undefined)
6. CCCC(=O)OC(C)OC(=O)CCC(=O)CN.Cl (centres undefined)

a:
["93 µM", "89 µM", "932 µM", "2660 µM", "2040 µM", "728 µM"]

Go through the items and report each one's IC50.
1. CCCC(=O)OCOC(=O)CCC(=O)CN.Cl
2. CCCC(CCC)C(=O)OC(C)OC(=O)CCC(=O)CN (centres undefined)
3. CCCC(CCC)C(=O)OCOC(=O)CCC(=O)CN

a:
1. 89 µM
2. 1040 µM
3. 64 µM

---

System: U-251
Experiment: Induction of apoptosis in human U251 cells assessed as viable cells at 100 uM after 48 hrs using annexin-V FITC and PI staining by flow cytometry
Type: functional
Details: U-251, 48 h, read-out: Activity
For each record, write down the corresponding viability at 100 µM.
Give bare numbers, in %.

{"Molecule": "NCC(=O)CCC(=O)O", "System under test": "U-251", "Reported property": "viability at 100 µM", "Test result": 76}
{"Molecule": "CCCC(=O)OCOC(=O)CCC(=O)CN.Cl", "System under test": "U-251", "Reported property": "viability at 100 µM", "Test result": 47}
{"Molecule": "CCCC(=O)OC(C)OC(=O)CCC(=O)CN.Cl (centres undefined)", "System under test": "U-251", "Reported property": "viability at 100 µM", "Test result": 80}

Now consider a different molecule.
q: Given the entry CC(C)(C)C(=O)OCOC(=O)CCC(=O)CN.Cl , report its measured viability at 100 µM.
a: 67

---

System: U-251
Test: Induction of apoptosis in human U251 cells assessed as early apoptotic cells at 100 uM after 48 hrs using annexin-V FITC and PI staining by flow cytometry in presence of Z-Asp-2,6-dichlorobenzoyloxymethylketone
Assay type: functional
Reported property: Activity (%)
Give bare numbers, in %.

{"Compound": "CCCC(=O)OC(C)OC(=O)CCC(=O)CN.Cl (centres undefined)", "Activity (%)": 2}

Hi there! I need Activity for each item below, if you can.
1. CC(C)(C)C(=O)OCOC(=O)CCC(=O)CN.Cl
2. NCC(=O)CCC(=O)O
3. CCCC(=O)OCOC(=O)CCC(=O)CN.Cl

a:
[2, 2, 4]

---

Task for the reader: assign each of the following molecules its reported viability at 100 µM.
Test system: U-251
Assay: Induction of apoptosis in human U251 cells assessed as viable cells at 100 uM after 48 hrs using annexin-V FITC and PI staining by flow cytometry in presence of Ac-LEHD-CHO
Format: functional
Details: U-251, 48 h, read-out: Activity
Quote the value and follow it with the unit of measurement.

{"Molecule": "CCCC(=O)OC(C)OC(=O)CCC(=O)CN.Cl (centres undefined)", "System under test": "U-251", "Test result": "86%"}
{"Molecule": "CC(C)(C)C(=O)OCOC(=O)CCC(=O)CN.Cl", "System under test": "U-251", "Test result": "77%"}

Go through the list and state viability at 100 µM for each entry.
1. NCC(=O)CCC(=O)O
2. CCCC(=O)OCOC(=O)CCC(=O)CN.Cl

a:
78%
81%

These data points were gathered from ChEMBL document CHEMBL1140223.
